Molecular target: T1, Human ROR1 (receptor tyrosine kinase-like orphan receptor 1) (human, UniProt Q01973 30-937)
T1 construct: also called hROR1; K562/ROR1
T1 sequence (Q01973 30-937): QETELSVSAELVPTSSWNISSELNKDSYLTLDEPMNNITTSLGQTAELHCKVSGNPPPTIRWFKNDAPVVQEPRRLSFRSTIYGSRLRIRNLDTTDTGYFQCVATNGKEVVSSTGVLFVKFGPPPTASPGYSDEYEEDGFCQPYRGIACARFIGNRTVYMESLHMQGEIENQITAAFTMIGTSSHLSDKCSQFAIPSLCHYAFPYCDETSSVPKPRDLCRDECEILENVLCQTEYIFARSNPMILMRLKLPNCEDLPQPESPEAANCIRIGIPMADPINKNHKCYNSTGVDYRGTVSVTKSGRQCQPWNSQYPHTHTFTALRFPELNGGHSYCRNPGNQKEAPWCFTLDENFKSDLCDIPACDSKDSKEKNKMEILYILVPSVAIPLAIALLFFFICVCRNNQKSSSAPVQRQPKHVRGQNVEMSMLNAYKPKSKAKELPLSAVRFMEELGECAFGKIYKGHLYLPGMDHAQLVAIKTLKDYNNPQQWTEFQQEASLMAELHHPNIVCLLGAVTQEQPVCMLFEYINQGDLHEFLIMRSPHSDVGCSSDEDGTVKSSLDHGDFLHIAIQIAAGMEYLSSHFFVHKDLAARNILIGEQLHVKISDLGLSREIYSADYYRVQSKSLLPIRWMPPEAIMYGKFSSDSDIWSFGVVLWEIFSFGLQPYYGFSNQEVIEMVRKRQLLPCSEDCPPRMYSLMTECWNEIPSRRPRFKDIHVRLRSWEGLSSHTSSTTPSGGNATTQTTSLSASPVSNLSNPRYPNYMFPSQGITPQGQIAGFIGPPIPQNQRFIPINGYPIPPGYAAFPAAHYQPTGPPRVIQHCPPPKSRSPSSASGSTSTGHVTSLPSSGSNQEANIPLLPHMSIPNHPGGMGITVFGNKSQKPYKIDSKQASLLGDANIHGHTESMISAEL
Assay: flow cytometry competition, competitor 2 nM Myc-R12 scFv on ROR1/K562 cells (n = 1)
measurement_kind: IC50 (nM)
Express it in nM; write the number only.

Consider the following illustrative entries.
Clone V420 (VHH, human VH-only single-domain antibody, no VL) VHH: QVQLVESGGGLVQPGGSLRLSCAASGFTFSSYWMSWVRQAPGKGLEWVANIKQDGSEKYYVDSVKGRFTISRDNAKNSLYLQMNSLRAEDTAVYYCARVNGGEYYFDYWGQGTLVTVSS ... 71.5
Clone V397 (VHH, human VH-only single-domain antibody, no VL) VHH: QITLKESGGGLVQPGGSLRLSCAASGFTFSNAWMSWVRQAPGKGLEWVGRIKSKTDGGTTDYAAPLKGRFTISRDDSKNTLYLQMNSLKTEDTAVYYCARAKGLWFGESYYFDYWGQGTLVTVSS ... 25.2

Query block: Dear colleague, please send me the reported IC50 for Clone V163 (VHH, human VH-only single-domain antibody, no VL) VHH: QVQLVESGGGLVKPGGSLRLSCAASGFTFSNAWMSWVRQAPGKGLEWVGRIKSKTDGGTTDYAAPVKGRFTISRDDSKNTLYLQMNSLKTEDTAVYYCARQGDSSSWYVEVYYFDYWGQGTLVTVSS when you can.
Result block: 154

Where do the numbers come from? From patent US20160208018A1.
